Values were extracted from the supplement of paper PMC10567573.

# ASSAY: protein stability index of a GFP-peptide fusion (GPS, HEK-293T) (PSI 1-6); higher = more stable;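 further: 24-mer peptide tiles fused after GFP, lentivirally expressed, FACS-sorted into six equal bins by GFP/DsRed ratio, decoded by Illumina sequencing, PSI is the read-weighted mean bin number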
# CONDITION_DETAILS: treatment: MLN4924 1 uM, 8 h; c terminus: a fixed tail appended
Response key: true means protein stability index >= 4; false means protein stability index < 4.

| ORDERED_RESIDUES | CAT |
| --- | --- |
| FNLTPPICEQAEYHMFQREKVEVQ [KCNAB2] | false |
| SPTFPALGIGMDSCVIPLRHGGLS [SEPHS2] | false |
| NLVSVGYQAGKPDALTKLEQGEPL [ZNF649] | true |
| AQHKFLVAVESMEPNNIVVLLQTS [TCF25] | false |
| CSQYDRVYCGAGVQKEHEEYMKNL [PCMTD2] | false |
| SARIVQVVTAEAVAVLKGEQEKEA [MAP2] | true |
| AEMPHTETVSPLPSSMDLLIQDSP [NANOGP8] | true |
| YGCKVADIKKVNNFIREQDLYALK [LYSMD4] | false |
| PTPVGAVQQDPALSSNREAHQHRD [CSNK1G3] | true |
| NARLQAMWGQSLLPPVSTSFTTGG [TNXB] | false |
| QRRASTVSSVTQVEVDENAYRCGS [NET1] | true |
| SPGSPVGEGTGSPPKWQIGEQEFE [ADD1] | true |
| KADIGAPSGFKHVSHVGWDPQNGF [WAS] | false |
| QDLVELYLTNCEKLSAKSLQTLRS [ZER1] | false |
| RAFNTDHQTQLLYQASAMMVESRY [RAD51] | false |
| GAARLALLQGAGLDVERWLKPAMT [FCHSD1] | false |
| LKLQTKDGHRPEWTFYPRFSSNIH [SPATS1] | false |
| KTEDENKQSFLDGGKGHHLPSENL [TOR1AIP2] | true |
| EGEEDATSEVDKRRTRPRHHHGRS [CHGB] | true |
| SPLLSQETAGQKPLSVHRPPTSGC [TSPAN10] | true |
| DKITGQSLGYGFVNYSDPNDADKA [ELAVL3] | true |
| ALKMTWHVHCFTCAACKTPIRNRA [PDLIM7] | false |
| AQAAVQGPVGTDFKPLNSTPATTT [ZNF207] | true |
| LKTLEEGLEGLEDAPPVELQLLHE [FANCE] | true |

* * *

# ASSAY: protein stability index of a GFP-peptide fusion (GPS, HEK-293T) (PSI 1-6); higher = more stable
# CONDITION_DETAILS: treatment: DMSO; c terminus: a fixed tail appended
MEASURED_PROPERTY: protein stability index

| ORDERED_RESIDUES | EXPERIMENTAL_RESULT |
| --- | --- |
| ETQTLTGWSKGFIGMHREMQVNPI [RHOBTB1] | 2.89 |
| KRKREEEEEKEPLAVDSWWLDPGH [SERTAD1] | 4.64 |
| TETEATNSLITAPGEFSDASMSPD [SMAD6] | 5.42 |
| CSTNKPEGYRVSQALRENTYPFLA [FAF2] | 2.54 |
| HEMVAHRHRQEVLCKEMVPLAEQT [ZSCAN9] | 4.42 |
| SGNFERCIRLWKYALDMQQSNLEP [FEM1A] | 2.12 |
| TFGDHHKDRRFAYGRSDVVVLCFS [RHOBTB1] | 2.38 |
| SELDADHPGFKDNVYRKRRKYFAD [TPH1] | 4.13 |
| GISAKVFGATTNYGKDIVKACSLL [ZBED1] | 2.33 |
| YQYIQSRFYRSPEVLLGTPYDLAI [DYRK1B] | 2.18 |
| AESFLLKSPIAPCSLDKRVILIFH [CDC25B] | 2.75 |
| PAQVHSSLSAGEKPGFLAPRDLPK [RASAL3] | 4.63 |
| SCSSDGGIAVWNMDVSREEAPQWL [WDFY1] | 3.07 |
| LTEDMYAQDSIELLTTSGIQFKKH [CNOT7] | 3.93 |
| ELALALKGNTTLQQLDLRWNNVGL [LRRC45] | 2.19 |
| ARHFNYVGDLMGSLAYCLACGGGH [DHCR7] | 2.9 |
| STAKKEDINLSVRKLLNRHNIVFG [TRIP13] | 2.5 |
| DYPYSPPAFRFLTKMWHPNIYETG [CDC34] | 2.17 |
| FSGTPPPPVLSFRLVHTTAIEHFQ [FCHO1] | 2.32 |
| NCQSVAQMNLLQKYSLLKLTALLE [DLC1] | 2.25 |
| KYTPSNKHGFSWAVPKFMKRIKVP [DLC1] | 2.49 |
| GTDLPLSEIPRGVRVALDYEAGQV [TRIM15] | 4.33 |
| NFGFDLLVTYTNRYIIFKRNTLNQ [GMCL1] | 2.1 |
| LKTLEEGLEGLEDAPPVELQLLHE [FANCE] | 4.81 |
| DLDFKHHNYKEMRQLMKVVNEMCP [CPXM2] | 2.93 |
| EGKNMSFVNDLTVTQDGRKIYFTD [APMAP] | 3.98 |
| ESTTVVTTQSAEVGAAETTLTELR [KRT18] | 5.37 |
| QFSRGDFVVEYHGDLIEITDAKKR [KMT5A] | 4.13 |
| HQLLGLFPSTSYNARLQAMWGQSL [TNXB] | 2.11 |
| QSPDEKPLVALDTDSDDDFDMSRY [FAM219A] | 5.44 |
| QRLEEETRKREDAEHNLVLFRKDV [PRPH] | 5.12 |
| PQQPVMFAQPMMRPPFGAAAVPGT [SNAP91] | 3.75 |
| YQSYFKTIEELQQKILCAKAENAR [KRT34] | 2.46 |
| PARDYVVLRTWRTNLPKGACALLL [DLC1] | 2.47 |
| QLQKILSIPQSSLEPLKAIIQYRL [ACSBG2] | 2.78 |
| TFLPDNFSPAKPKPSKELKPLLGS [MYORG] | 3.52 |
| LLEQAGSLKGSLSVEEQLSLISGC [CRYL1] | 2.98 |
| IEPYITNFFNQVLMLGKTSISDLS [PDS5B] | 3.01 |
| AKREETKAMESQRAYRFVQGKDWG [SPOPL] | 3.09 |
| SGRGTGRGGGGGGGGGAPRGRYGP [SRSF1] | 4.79 |
| NTHVSQVFNLFRTMGLRHLPVVNA [CLCN6] | 2.57 |
| HPVPLSFEPVKSFFKGLVEAVEST [TRIM14] | 2.6 |
| VTVSDASWVSELLWSLFVPFTVYQ [AUP1] | 2.87 |
| VFDALESDHEMREEEKLKAEEIRI [KCNK9] | 5.27 |
| FMRTSVKISYIGLMTQSSLETHHY [TMEM106C] | 3.07 |
| AMTGTFPAYGMSPSLSTITSTSSS [DVL3] | 3.68 |
| DAILYYYQSGGRIRRPVNVPIDIF [KCNA3] | 2.2 |
| GTIFIRNVLLFKKQNPGKFCLLSC [RETREG3] | 2.7 |
| AAIKVNDSVPFHLGWNSTERSLRL [MYORG] | 2.61 |
| WDLVSASVVCRELGFGSAKEAVTG [LOXL2] | 2.58 |
| DPSVRLKIASLLGLLSKTAGFSPD [INTS4] | 2.57 |
| AEAEALYSAYIRRCACAASSDESP [TTC32] | 3.25 |
| IKDQGGAGEGLVRSANGFPYREDE [MAP2] | 5.13 |
